targetDesc: CaV2.2 (N-type) calcium channel (Rattus norvegicus, UniProt Q02294)
Sequence (Q02294 whole entry): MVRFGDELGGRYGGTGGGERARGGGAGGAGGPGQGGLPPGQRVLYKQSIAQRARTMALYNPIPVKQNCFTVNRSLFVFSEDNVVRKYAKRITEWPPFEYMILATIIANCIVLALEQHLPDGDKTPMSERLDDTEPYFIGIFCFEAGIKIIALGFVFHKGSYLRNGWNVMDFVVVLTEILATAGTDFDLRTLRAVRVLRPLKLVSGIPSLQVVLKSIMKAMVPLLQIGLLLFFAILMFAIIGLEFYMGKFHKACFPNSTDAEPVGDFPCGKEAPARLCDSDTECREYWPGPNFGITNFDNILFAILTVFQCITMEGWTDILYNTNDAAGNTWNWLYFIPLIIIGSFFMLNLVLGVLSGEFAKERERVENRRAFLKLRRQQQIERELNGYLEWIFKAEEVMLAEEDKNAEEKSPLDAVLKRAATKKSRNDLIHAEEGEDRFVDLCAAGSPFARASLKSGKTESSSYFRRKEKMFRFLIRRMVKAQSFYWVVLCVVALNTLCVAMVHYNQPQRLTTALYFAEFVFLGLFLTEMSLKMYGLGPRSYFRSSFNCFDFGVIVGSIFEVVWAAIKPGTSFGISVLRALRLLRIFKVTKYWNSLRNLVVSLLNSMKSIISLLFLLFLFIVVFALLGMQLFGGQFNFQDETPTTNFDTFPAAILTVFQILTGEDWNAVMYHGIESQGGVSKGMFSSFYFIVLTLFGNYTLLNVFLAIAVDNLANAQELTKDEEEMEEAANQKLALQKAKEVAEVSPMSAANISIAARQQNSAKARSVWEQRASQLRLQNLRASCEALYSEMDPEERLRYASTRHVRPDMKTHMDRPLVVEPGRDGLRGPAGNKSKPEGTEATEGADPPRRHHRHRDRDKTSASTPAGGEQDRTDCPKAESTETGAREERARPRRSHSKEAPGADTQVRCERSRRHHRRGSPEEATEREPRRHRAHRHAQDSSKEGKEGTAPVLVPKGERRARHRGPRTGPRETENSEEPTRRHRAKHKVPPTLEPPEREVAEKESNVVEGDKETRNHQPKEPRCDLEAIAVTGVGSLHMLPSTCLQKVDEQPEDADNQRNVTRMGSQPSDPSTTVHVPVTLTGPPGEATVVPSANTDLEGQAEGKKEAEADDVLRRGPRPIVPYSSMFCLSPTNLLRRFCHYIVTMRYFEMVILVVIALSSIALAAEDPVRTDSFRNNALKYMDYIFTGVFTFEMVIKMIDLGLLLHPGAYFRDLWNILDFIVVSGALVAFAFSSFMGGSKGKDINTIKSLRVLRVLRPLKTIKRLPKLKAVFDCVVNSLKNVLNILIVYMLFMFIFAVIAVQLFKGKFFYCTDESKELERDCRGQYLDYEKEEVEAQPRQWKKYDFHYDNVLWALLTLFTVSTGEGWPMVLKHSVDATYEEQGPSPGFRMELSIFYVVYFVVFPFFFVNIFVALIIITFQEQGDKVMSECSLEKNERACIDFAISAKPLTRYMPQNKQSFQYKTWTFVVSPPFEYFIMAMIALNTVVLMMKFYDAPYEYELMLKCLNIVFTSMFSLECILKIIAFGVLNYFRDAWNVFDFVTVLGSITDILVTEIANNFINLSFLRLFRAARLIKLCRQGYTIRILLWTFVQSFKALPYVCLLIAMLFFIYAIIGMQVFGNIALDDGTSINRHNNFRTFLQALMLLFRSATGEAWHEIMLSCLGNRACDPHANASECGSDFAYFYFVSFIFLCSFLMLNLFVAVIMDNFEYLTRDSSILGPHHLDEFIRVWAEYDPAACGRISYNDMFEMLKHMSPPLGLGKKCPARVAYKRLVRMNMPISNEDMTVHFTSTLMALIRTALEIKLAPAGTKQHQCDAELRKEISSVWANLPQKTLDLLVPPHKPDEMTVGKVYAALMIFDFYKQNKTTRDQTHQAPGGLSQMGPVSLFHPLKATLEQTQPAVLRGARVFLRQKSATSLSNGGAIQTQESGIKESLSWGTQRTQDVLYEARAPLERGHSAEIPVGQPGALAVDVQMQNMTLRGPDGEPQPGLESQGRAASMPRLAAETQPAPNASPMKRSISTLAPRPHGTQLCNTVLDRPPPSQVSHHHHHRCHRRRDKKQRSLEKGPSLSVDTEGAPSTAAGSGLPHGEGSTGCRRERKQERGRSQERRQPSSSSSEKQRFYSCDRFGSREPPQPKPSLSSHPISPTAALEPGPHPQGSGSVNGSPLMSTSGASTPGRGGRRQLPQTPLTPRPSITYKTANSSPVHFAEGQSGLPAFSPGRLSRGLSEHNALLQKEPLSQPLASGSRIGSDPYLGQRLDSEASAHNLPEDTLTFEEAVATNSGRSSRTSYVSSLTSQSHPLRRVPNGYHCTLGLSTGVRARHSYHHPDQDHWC
protocolDetails: patch-clamp in HEK293 cells expressing the channel, Vh -50 mV ([…] at -80 mV)
measuredMetric: pIC50
Lab note — pIC50 values are minus log10 of concentrations in M.

Output measured pIC50 for this item: COc1ccc(OCC(O)CNC2CCCC2)c(C(C)(C)C)c1 (racemic)
5.89
